- TEST_PROTOCOL: Pharmacokinetics after repeated administration (Q7D×3) to dogs
- Assay type: in vivo
- CONDITION_LABEL: dog, plasma, intravenous; TH302 in dogs, 4 mg/kg Q7D×3, Day 15; read-out: Vss
ASSAY_ENDPOINT: Vd (L/kg)
Entry rule: numbers only, all in L/kg.

query: Hello, please tell me recorded Vd for this one: `Cn1c(COP(=O)(NCCBr)NCCBr)cnc1[N+](=O)[O-]`
result: 2.1

----------
- TEST_PROTOCOL: Pharmacokinetics in beagle dogs (20 mg/kg i.v.)
- Format: in vivo
- CONDITION_LABEL: dog, plasma, iv, read-out: Mean t1/2
ASSAY_ENDPOINT: half-life (min)
Entry rule: numbers only, all in min.

query: Hello, please tell me recorded half-life for this one: `Cn1c(COP(=O)(NCCBr)NCCBr)cnc1[N+](=O)[O-]`
result: 49.2
